Target: Protein farnesyltransferase (Homo sapiens, UniProt P49354+P49356)
Experiment: Inhibition of human farnesyltransferase
PARAMETER_MEASURED: IC50 (nM)

Example results:
Cn1cncc1CN1C[C@H](N(Cc2ccsc2)S(=O)(=O)c2ccccc2)Cc2cc(C#N)ccc21    2.8
Cn1cnc(S(=O)(=O)N(Cc2ccccc2)C2Cc3cc(C#N)ccc3N(Cc3cncn3C)C2)c1 (stereo not given)    1.1
CN(C1Cc2cc(C#N)ccc2N(Cc2cncn2C)C1)S(=O)(=O)c1cnn(C)c1 (stereo not given)    7.6

1: Cn1cncc1CN1CC(N(CC(=O)OC(C)(C)C)S(=O)(=O)c2ccccc2)Cc2cc(C#N)ccc21 (stereo not given)
2: Cn1cncc1CN1CC(N(Cc2ccccc2)S(C)(=O)=O)Cc2cc(C#N)ccc21 (stereo not given)
Between 1 and 2 , which one shows the smaller IC50 number? Indicate your choice by writing its label.
2

###

Biological target: Protein farnesyltransferase (Rattus norvegicus) (UniProt Q04631+Q02293)
Assay: Percentage cellular reversion of H-ras transformed Rat-1 cells at 100 nM
Format: functional, cell-based
PARAMETER_MEASURED: Cellular reversion (%)

Example results:
Cn1cncc1CN1CC(N(Cc2ccccc2)S(=O)(=O)c2ccccn2)Cc2cc(C#N)ccc21 (stereo not drawn)    90
CN(C1Cc2cc(C#N)ccc2N(Cc2cncn2C)C1)S(=O)(=O)c1ccccn1 (stereo not drawn)    0
Cn1cnc(S(=O)(=O)N(CC(=O)OC(C)(C)C)C2Cc3cc(C#N)ccc3N(Cc3cncn3C)C2)c1 (stereo not drawn)    90
C=C(C)CN(C1Cc2cc(C#N)ccc2N(Cc2cncn2C)C1)S(=O)(=O)c1ccccn1 (stereo not drawn)    85
Cn1cncc1CN1CC(N(Cc2ccsc2)S(=O)(=O)c2ccccn2)Cc2cc(C#N)ccc21 (stereo not drawn)    95

a: CN(C1Cc2cc(C#N)ccc2N(Cc2cncn2C)C1)S(=O)(=O)c1ccccc1 (stereo not drawn)
b: Cn1cncc1CN1CC(N(CC(=O)OC(C)(C)C)S(=O)(=O)c2cccnc2)Cc2cc(C#N)ccc21 (stereo not drawn)
c: Cn1cncc1CN1CC(N(Cc2ccsc2)S(=O)(=O)c2ccccc2)Cc2cc(C#N)ccc21 (racemic)
d: Cn1cncc1CN1CC(N(CC2CCCCC2)S(=O)(=O)c2ccccc2)Cc2cc(C#N)ccc21 (stereo not drawn)
Rank order required: Cellular reversion, descending. Labels, ranked as asked.
c, a, b, d
(c: 90%, a: 45%, b: 30%, d: 0%)

###

Molecular target: Protein farnesyltransferase (Homo sapiens, UniProt P49354+P49356)
Assay: Inhibition of human farnesyltransferase
pIC50: −log10 of the molar value.
PARAMETER_MEASURED: pIC50

Example results:
C=C(C)CN(C1Cc2cc(C#N)ccc2N(Cc2cncn2C)C1)S(=O)(=O)c1ccccn1 (stereo not given)    9.05
Cn1cncc1CN1CC(N(CC2CCCCC2)S(=O)(=O)c2ccccc2)Cc2cc(C#N)ccc21 (stereo not given)    7.32
Cn1cc(S(=O)(=O)N(Cc2ccccc2)C2Cc3cc(C#N)ccc3N(Cc3cncn3C)C2)cn1 (stereo not given)    8.34
Cn1cncc1CN1CC(N(CC(=O)OC(C)(C)C)S(=O)(=O)c2cccnc2)Cc2cc(C#N)ccc21 (stereo not given)    8.41
C=C(C)CN(C1Cc2cc(C#N)ccc2N(Cc2cncn2C)C1)S(=O)(=O)c1cccnc1 (stereo not given)    8.92

P: CN(C1Cc2cc(C#N)ccc2N(Cc2cncn2C)C1)S(=O)(=O)c1cccnc1 (stereo not given)
Q: C=C(C)CN(C1Cc2cc(C#N)ccc2N(Cc2cncn2C)C1)S(C)(=O)=O (stereo not given)
R: Cn1cncc1CN1CC(N(Cc2ccccc2)S(=O)(=O)c2ccccn2)Cc2cc(C#N)ccc21 (stereo not given)
Please list these in order of increasing pIC50. Thank you! Labels, ranked as asked.
P, R, Q
(P: 7.77, R: 8.59, Q: 9.10)

###

Target: Protein farnesyltransferase (Rattus norvegicus) (UniProt Q04631+Q02293)
Assay: Percentage cellular reversion of H-ras transformed Rat-1 cells at 100 nM
Assay type: functional, cell-based
PARAMETER_MEASURED: Cellular reversion (%)

Example results:
Cn1cncc1CN1C[C@@H](N(Cc2ccsc2)S(=O)(=O)c2ccccc2)Cc2cc(C#N)ccc21    85
C=C(C)CN(C1Cc2cc(C#N)ccc2N(Cc2cncn2C)C1)S(=O)(=O)c1cccnc1 (stereo unspecified)    70
CN(C1Cc2cc(C#N)ccc2N(Cc2cncn2C)C1)S(=O)(=O)c1cccnc1 (stereo unspecified)    0
Cn1cncc1CN1CC(N(Cc2ccsc2)S(=O)(=O)c2cccnc2)Cc2cc(C#N)ccc21 (stereo unspecified)    85
Cn1cc(S(=O)(=O)N(Cc2ccsc2)C2Cc3cc(C#N)ccc3N(Cc3cncn3C)C2)cn1 (stereo unspecified)    95

P: Cn1cncc1CN1CC(N(Cc2ccccc2)S(C)(=O)=O)Cc2cc(C#N)ccc21 (stereo unspecified)
Q: Cn1cnc(S(=O)(=O)N(Cc2ccsc2)C2Cc3cc(C#N)ccc3N(Cc3cncn3C)C2)c1 (stereo unspecified)
Which one would you say has the larger Cellular reversion value: P , or Q ? Indicate your choice by writing its label.
Q

I: CN(C1Cc2cc(C#N)ccc2N(Cc2cncn2C)C1)S(=O)(=O)c1cnn(C)c1 (stereo unspecified)
II: Cn1cc(S(=O)(=O)N(Cc2ccccc2)C2Cc3cc(C#N)ccc3N(Cc3cncn3C)C2)cn1 (stereo unspecified)
Between I and II , which one shows the smaller Cellular reversion number? Indicate your choice by writing its label.
I
(I: 0%, II: 75%)

###

Biological target: Protein farnesyltransferase (Rattus norvegicus) (UniProt Q04631+Q02293)
Experiment: Percentage cellular reversion in H-ras transformed Rat-1 cells at 1 uM
Format: functional, cell-based
PARAMETER_MEASURED: Cellular reversion (%)

Cn1cncc1CN1CC(N(Cc2ccccc2)S(C)(=O)=O)Cc2cc(C#N)ccc21 (stereo not given)    85
CN(C1Cc2cc(C#N)ccc2N(Cc2cncn2C)C1)S(=O)(=O)c1ccccn1 (stereo not given)    85

I: Cn1cncc1CN1CC(N(CC2CCCCC2)S(=O)(=O)c2ccccc2)Cc2cc(C#N)ccc21 (stereo not given)
II: CN(C1Cc2cc(C#N)ccc2N(Cc2cncn2C)C1)S(=O)(=O)c1cccnc1 (stereo not given)
Which one would you say has the larger Cellular reversion value: I , or II ? Indicate your choice by writing its label.
I
(I: 90%, II: 10%)

###

Target: Protein farnesyltransferase (Homo sapiens, UniProt P49354+P49356)
Experiment: Inhibition of human farnesyltransferase
Format: protein-complex assay
PARAMETER_MEASURED: IC50 (nM)

Cn1cncc1CN1CC(N(Cc2ccccc2)S(=O)(=O)c2ccccc2)Cc2cc(C#N)ccc21 (stereo not given)    3

1: Cn1cnc(S(=O)(=O)N(CC(=O)OC(C)(C)C)C2Cc3cc(C#N)ccc3N(Cc3cncn3C)C2)c1 (stereo not given)
2: Cn1cncc1CN1CC(N(Cc2ccsc2)S(=O)(=O)c2ccccc2)Cc2cc(C#N)ccc21 (racemic)
3: C=C(C)CN(C1Cc2cc(C#N)ccc2N(Cc2cncn2C)C1)S(=O)(=O)c1ccccc1 (stereo not given)
4: Cn1cncc1CN1CC(NS(=O)(=O)c2ccccc2)Cc2cc(C#N)ccc21 (stereo not given)
Please list these in order of increasing IC50. Thank you! Labels, ranked as asked.
1, 3, 2, 4
(1: 0.6 nM, 3: 0.9 nM, 2: 2.5 nM, 4: 10 nM)

###

Biological target: Protein farnesyltransferase (Homo sapiens, UniProt P49354+P49356)
Experiment: Inhibition of human farnesyltransferase
PARAMETER_MEASURED: IC50 (nM)

Cn1cncc1CN1C[C@@H](N(Cc2ccsc2)S(=O)(=O)c2ccccc2)Cc2cc(C#N)ccc21    1.1

P: Cn1cncc1CN1CC(N(Cc2ccsc2)S(=O)(=O)c2cccnc2)Cc2cc(C#N)ccc21 (stereo not given)
Q: CN(C1Cc2cc(C#N)ccc2N(Cc2cncn2C)C1)S(=O)(=O)c1ccccc1 (stereo not given)
R: C=C(C)CN(C1Cc2cc(C#N)ccc2N(Cc2cncn2C)C1)S(=O)(=O)c1cn(C)cn1 (stereo not given)
Rank order required: IC50, descending. Labels, ranked as asked.
Q, P, R

###

Target: Protein farnesyltransferase (Rattus norvegicus, UniProt Q02293+Q04631)
Test: Inhibition of cellular reversion in H-ras transformed Rat-1 cells
PARAMETER_MEASURED: IC50 (nM)

Cn1cnc(S(=O)(=O)N(CC(=O)OC(C)(C)C)C2Cc3cc(C#N)ccc3N(Cc3cncn3C)C2)c1 (stereo not given)    30
Cn1cncc1CN1CC(N(Cc2ccccc2)S(=O)(=O)c2cccnc2)Cc2cc(C#N)ccc21 (stereo not given)    70
C=C(C)CN(C1Cc2cc(C#N)ccc2N(Cc2cncn2C)C1)S(=O)(=O)c1cccnc1 (stereo not given)    100

I: Cn1cncc1CN1CC(N(CC(=O)OC(C)(C)C)S(=O)(=O)c2cccnc2)Cc2cc(C#N)ccc21 (stereo not given)
II: C=C(C)CN(C1Cc2cc(C#N)ccc2N(Cc2cncn2C)C1)S(C)(=O)=O (stereo not given)
Between I and II , which one shows the smaller IC50 number? Indicate your choice by writing its label.
II
(II: 8 nM, I: 225 nM)

P: C=C(C)CN(C1Cc2cc(C#N)ccc2N(Cc2cncn2C)C1)S(=O)(=O)c1ccccn1 (stereo not given)
Q: Cn1cncc1CN1CC(N(CC(=O)OC(C)(C)C)S(=O)(=O)c2ccccn2)Cc2cc(C#N)ccc21 (stereo not given)
Between P and Q , which one shows the smaller IC50 number? Indicate your choice by writing its label.
Q
(Q: 10 nM, P: 60 nM)

P: C=C(C)CN(C1Cc2cc(C#N)ccc2N(Cc2cncn2C)C1)S(=O)(=O)c1cn(C)cn1 (stereo not given)
Q: Cn1cncc1CN1CC(N(Cc2ccsc2)S(=O)(=O)c2ccccn2)Cc2cc(C#N)ccc21 (stereo not given)
Which one would you say has the larger IC50 value: P , or Q ? Indicate your choice by writing its label.
P
